Test system: HepG2
Experiment: cytotoxicity call (relative viability < 0.9)
Settings: 10 µM
Out of some 39,000 compounds screened, about 3,300 (8.5%) were called active. What follows is part of a selection rich in actives, with near analogues and random picks from the rest.
Respond with a class label; see TRUE = active, FALSE = inactive

(Q) Please indicate how the test categorized C[C@H](CO)N1C[C@H](C)[C@H](CN(C)Cc2ccc(-c3ccccc3)cc2)Oc2ccc(NC(=O)NC3CCCCC3)cc2C1=O .
(A) FALSE

(Q) Further, for O=C(C[C@@H]1CC[C@H]2[C@@H](COC[C@@H](O)CN2C(=O)Nc2ccc(Cl)c(Cl)c2)O1)NCc1ccc(Cl)c(Cl)c1 ?
(A) TRUE

(Q) Further, for O=C(C[C@H]1CC[C@@H]2[C@H](COC[C@@H](O)CN2Cc2cccc(C(F)(F)F)c2)O1)NCCc1ccncc1 ?
(A) TRUE

(Q) Further, for CC(C)NC(=O)Nc1ccc2c(c1)C(=O)N([C@H](C)CO)C[C@@H](C)[C@@H](CN(C)Cc1ccc(-c3ccccc3)cc1)O2 ?
(A) FALSE

(Q) Further, for C[C@@H]1CN([C@H](C)CO)C(=O)c2cc(NC(=O)NC3CCCCC3)ccc2O[C@@H]1CN(C)Cc1ccc(-c2ccccc2)cc1 ?
(A) TRUE

(Q) Further, for C[C@@H]1CN([C@@H](C)CO)C(=O)c2cc(NC(=O)NC3CCCCC3)ccc2O[C@H]1CN(C)Cc1ccc(-c2ccccc2)cc1 ?
(A) FALSE

(Q) Further, for Cc1noc(C)c1NC(=O)N[C@H]1C=C[C@H](CC(=O)N2CCN(C)CC2)O[C@@H]1CO ?
(A) FALSE

(Q) Further, for C[C@H]1CN([C@@H](C)CO)C(=O)c2cc(NC(=O)NC3CCCCC3)ccc2O[C@@H]1CN(C)Cc1ccc(-c2ccccc2)cc1 ?
(A) TRUE

(Q) Further, for C[C@H](NC(=O)C[C@H]1C[C@@H]2c3cc(NC(=O)Nc4ccc(C(F)(F)F)cc4)ccc3O[C@@H]2[C@H](CO)O1)c1ccccc1 ?
(A) FALSE

(Q) Further, for O=C(C[C@@H]1CC[C@@H]2[C@H](COC[C@H](O)CN2Cc2cccc(C(F)(F)F)c2)O1)NCCc1ccncc1 ?
(A) FALSE

(Q) Further, for Cc1ccc(S(=O)(=O)N(C)C[C@H]2Oc3c(NC(=O)C4CCOCC4)cccc3C(=O)N([C@@H](C)CO)C[C@H]2C)cc1 ?
(A) FALSE

(Q) Further, for C[C@@H]1CN([C@H](C)CO)C(=O)c2cc(NC(=O)NC3CCCCC3)ccc2O[C@H]1CN(C)Cc1ccc(-c2ccccc2)cc1 ?
(A) FALSE

(Q) Further, for C[C@H](CO)N1C[C@H](C)[C@H](CN(C)C(=O)c2ccccc2)OCCCC[C@H](C)Oc2ccc(NC(=O)Nc3cccc4ccccc34)cc2C1=O ?
(A) FALSE

(Q) Further, for O=C(C[C@H]1CC[C@@H]2[C@H](COC[C@H](O)CN2Cc2cccc(C(F)(F)F)c2)O1)NCCc1ccncc1 ?
(A) FALSE

(Q) Further, for Clc1ccc(Cn2cccc2)cn1 ?
(A) FALSE

====

Test system: HepG2
Assay: cytotoxicity call (relative viability < 0.9)
Settings: 10 µM
The campaign covered roughly 39,000 compounds. About 3,300 (8.5%) were called active. What follows is part of a selection rich in actives, with near analogues and random picks from the rest.
Respond with a class label; see yes (1) (active), no (0) (inactive)

(Q) Please indicate how the test categorized CN1CCN(c2ccc(OC(F)(F)F)c(Nc3ncc4c(n3)-c3c(c(C(N)=O)nn3CCO)CC4)c2)CC1 .
(A) yes (1)

(Q) Further, for C[C@@H]1CN([C@H](C)CO)C(=O)c2cc(NC(=O)Nc3ccc(C(F)(F)F)cc3)ccc2O[C@@H](C)CCCCO[C@H]1CN(C)C(=O)Nc1ccc(F)cc1 ?
(A) yes (1)

(Q) Further, for CCCNc1nc(=O)c(C)n[nH]1 ?
(A) no (0)

(Q) Further, for CC(=O)Nc1ccc(OC(C)=O)cc1 ?
(A) no (0)

(Q) Further, for O=C(O)[C@@H]1CCCC[C@@H]1C(=O)N1CCc2ccccc2[C@H]1CN1C(=O)c2ccccc2C1=O.O=C(O)[C@H]1CCCC[C@@H]1C(=O)N1CCc2ccccc2[C@H]1CN1C(=O)c2ccccc2C1=O ?
(A) no (0)

(Q) Further, for O=c1[nH]c(=O)c2cc(Br)ccc2[nH]1 ?
(A) yes (1)

(Q) Further, for Cc1cc(C(=O)Nc2cccc3c2O[C@H](CN(C)C(=O)NC(C)C)[C@@H](C)CN([C@@H](C)CO)C3=O)n(C)n1 ?
(A) no (0)

(Q) Further, for NCc1cccc2nsnc12 ?
(A) no (0)

(Q) Further, for COCC(=O)Nc1c(I)c(C(=O)NC[C@@H](O)CO)c(I)c(C(=O)N(C)C[C@@H](O)CO)c1I ?
(A) no (0)

(Q) Further, for C[C@H]1CCCCO[C@H](CN(C)C(=O)Nc2ccc(C(F)(F)F)cc2)[C@@H](C)CN([C@@H](C)CO)C(=O)c2cc(NC(=O)Nc3ccc(F)cc3)ccc2O1 ?
(A) no (0)

(Q) Further, for COc1ccc(CN(C)C[C@H]2Oc3ccc(NC(=O)CCCCCC(=O)Nc4ccccc4N)cc3CC(=O)N([C@@H](C)CO)C[C@@H]2C)cc1 ?
(A) no (0)

(Q) Further, for COCC#Cc1ccc([C@@H]2[C@@H](CO)N3C(=O)CN(C(=O)CN4CCOCC4)C[C@H]23)cc1 ?
(A) no (0)

(Q) Further, for CN1CCN([C@H](CNC(=O)C(=O)NCCN2CCOCC2)c2ccc(N(C)C)cc2)CC1 ?
(A) no (0)

(Q) Further, for COc1ccc2[nH]cc(CCNC(C)=O)c2c1 ?
(A) no (0)

(Q) Further, for C[C@@H]1CN([C@H](C)CO)C(=O)Cc2cc(NC(=O)Nc3ccc(F)cc3)ccc2O[C@@H]1CN(C)Cc1ccc(-c2ccccc2)cc1 ?
(A) no (0)

(Q) Further, for C[C@H]1CCCCO[C@@H](CN(C)C(=O)Nc2ccc(F)cc2)[C@@H](C)CN([C@@H](C)CO)C(=O)c2cc(NC(=O)Nc3ccc(C(F)(F)F)cc3)ccc2O1 ?
(A) no (0)

(Q) Further, for CC(C)(C)c1ccc(NC(=O)N[C@H]2CCCc3ccccc32)cc1 ?
(A) yes (1)

(Q) Further, for C[C@@H]1CCCCO[C@@H](CN(C)C(=O)Nc2ccc(C(F)(F)F)cc2)[C@H](C)CN([C@H](C)CO)C(=O)c2cc(NC(=O)Nc3ccc(F)cc3)ccc2O1 ?
(A) yes (1)

(Q) Further, for C[C@@H]1CCCCO[C@H](CN(C)C(=O)Nc2ccc(C(F)(F)F)cc2)[C@H](C)CN([C@H](C)CO)C(=O)c2cc(NC(=O)Nc3ccc(F)cc3)ccc2O1 ?
(A) no (0)

(Q) Further, for CC(=O)OC[C@@H](OC(C)=O)[C@H](OC(C)=O)[C@H](OC(C)=O)[C@H](OC(C)=O)[C@@H](COC(C)=O)OC(C)=O ?
(A) no (0)

(Q) Further, for CC(=O)[C@@H](OC(=O)CS(C)(=O)=O)C(=O)NCc1ccccc1 ?
(A) no (0)

(Q) Further, for C[C@@H]1CCCCO[C@H](CN(C)C(=O)Nc2ccc(C(F)(F)F)cc2)[C@@H](C)CN([C@H](C)CO)C(=O)c2cc(NC(=O)Nc3ccc(F)cc3)ccc2O1 ?
(A) yes (1)

(Q) Further, for C[C@H]1CN([C@@H](C)CO)C(=O)Cc2cc(NC(=O)Nc3ccc(F)cc3)ccc2O[C@H]1CN(C)Cc1ccc(-c2ccccc2)cc1 ?
(A) yes (1)

(Q) Further, for C[C@H](CO)N1C[C@H](C)[C@H](CN(C)CC2CC2)Oc2c(NS(=O)(=O)c3cccs3)cccc2C1=O ?
(A) no (0)

(Q) Further, for C[C@@H]1CN([C@@H](C)CO)C(=O)Cc2cc(NC(=O)Nc3ccc(F)cc3)ccc2O[C@H]1CN(C)Cc1ccc(-c2ccccc2)cc1 ?
(A) yes (1)

(Q) Further, for C[C@H](CO)N1C[C@H](C)[C@@H](CN(C)C(=O)Nc2ccc(C(F)(F)F)cc2)OCCCC[C@H](C)Oc2ccc(NC(=O)Nc3ccc(F)cc3)cc2C1=O ?
(A) no (0)

(Q) Further, for COc1ccc2c3c(n(c2c1)C)[C@@H](CO)N(CC1CCOCC1)C[C@]13CN(C1)C(=O)c1cccc(c1)F ?
(A) no (0)

(Q) Further, for C[C@@H]1CN([C@H](C)CO)C(=O)c2cc(NC(=O)Nc3ccc(F)cc3)ccc2O[C@@H](C)CCCCO[C@H]1CN(C)C(=O)Nc1ccc(C(F)(F)F)cc1 ?
(A) yes (1)

(Q) Further, for C[C@H]1O[C@@H](n2cc(F)c(=O)[nH]c2=O)[C@H](O)[C@@H]1O ?
(A) no (0)

(Q) Further, for C[N+](C)(C)CCCC[C@@H]1NC(=O)[C@@H]2C[C@H](C(=O)NCCCCCCNC(=O)CS)[C@H](c3ccc(O)cc3)N2C1=O ?
(A) no (0)
